- System: K24384-001-R-PDC complex spheroids, viability;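 also: spheroids exposed to compounds for seven days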
- assay info: Anticancer human tumor K24384-001-R-PDC patient-derived pancreatic adenocarcinoma cell line growth inhibition [GQUAD]
- condition description: curve of first compound; second compound 0.1 µM
pIC50: −log10 of the molar value.
Quick reference: pIC50 of the listed items.
assay readout: pIC50

CC(C)(O)C1CCC(Nc2ccc3ncc(-c4cccc(C(F)(F)F)c4)n3n2)CC1 (stereo not given) + Cc1cnc(CNC(=O)c2c(=O)c3ccc(N4CCCN(C)CC4)nc3n3c2sc2ccccc23)cn1 | 5.77
COc1cc(C2c3cc4c(cc3C(OC3OC5COC(C)OC5C(O)C3O)C3COC(=O)C23)OCO4)cc(OC)c1O (stereo not given) + Cc1[nH]c2ccc(F)cc2c1-c1nc2c3cccnc3c3ncccc3c2[nH]1 | 5.88
O=c1[nH]cc(F)c(=O)[nH]1 + CN(C)c1ccc(Nc2c3ccc(NC(=O)CCN4CCCC4)cc3nc3cc(NC(=O)CCN4CCCC4)ccc23)cc1 | 5.80
COc1cc(C2c3cc4c(cc3C(OC3OC5COC(C)OC5C(O)C3O)C3COC(=O)C23)OCO4)cc(OC)c1O (stereo not given) + CN(C)c1ccc(Nc2c3ccc(NC(=O)CCN4CCCC4)cc3nc3cc(NC(=O)CCN4CCCC4)ccc23)cc1 | 6.08
